Reference source for all entries: patent US5508428A

What follows is a collection of MIC values obtained with S. aureus, 209P.

{"columns": ["COMPOUND", "MIC"],
 "data": [
  ["NC1CN(c2c(F)cc3c(=O)c(C(=O)O)cn(C4CC4)c3c2F)CC12CC2 (single isomer, unassigned; (+)) [Compound 31a]", "0.1 µg/mL"],
  ["O=C(O)c1cn(C2CC2)c2c(F)c(N3CC(CO)C4(CCC4)C3)c(F)cc2c1=O (centres unmarked)", "≤ 0.05 µg/mL"],
  ["O=C(O)c1cn(C2CC2)c2cc(N3CCNC4(CC4)C3)c(F)cc2c1=O", "0.2 µg/mL"]
]}

Input line: Param readout= MIC; system= S. aureus, 209P; entry= NC1CN(c2c(F)cc3c(=O)c(C(=O)O)cn(C4CC4)c3c2F)CC12CCC2 (centres unmarked) ; returns value.
Output line: ≤ 0.05 µg/mL

Input line: Param readout= MIC; system= S. aureus, 209P; entry= Cc1c(N2CC(N)C3(CC3)C2)c(F)cc2c(=O)c(C(=O)O)cn(C3CC3)c12 (single isomer, unassigned; (-)) [Compound 55b] ; returns value.
Output line: ≤ 0.05 µg/mL

Input line: Param readout= MIC; system= S. aureus, 209P; entry= C[C@H]1COc2c(N3CC(N)C4(CCC4)C3)c(F)cc3c(=O)c(C(=O)O)cn1c23 (some centres unmarked) ; returns value.
Output line: ≤ 0.05 µg/mL

Input line: Param readout= MIC; system= S. aureus, 209P; entry= C[C@H]1COc2c(N3CC(N)C4(CC4)C3)c(F)cc3c(=O)c(C(=O)O)cn1c23 (some centres unmarked) [Compound 36] ; returns value.
Output line: 0.1 µg/mL

Input line: Param readout= MIC; system= S. aureus, 209P; entry= C[C@H]1COc2c(N3CC(N)C4(CC4)C3)c(F)cc3c(=O)c(C(=O)O)cn1c23 (single isomer, unassigned; (-)) [Compound 36b] ; returns value.
Output line: ≤ 0.05 µg/mL

Input line: Param readout= MIC; system= S. aureus, 209P; entry= NC1CN(c2c(F)cc3c(=O)c(C(=O)O)cn(C4CC4)c3c2F)CC12CC2 (centres unmarked) [Compound 31] ; returns value.
Output line: ≤ 0.05 µg/mL

Input line: Param readout= MIC; system= S. aureus, 209P; entry= NC1CN(c2c(F)cc3c(=O)c(C(=O)O)cn(C4CC4)c3c2Cl)CC12CC2 (racemic) [Compound 32] ; returns value.
Output line: ≤ 0.05 µg/mL

Input line: Param readout= MIC; system= S. aureus, 209P; entry= N[C@@H]1CN(c2cc3c(cc2F)c(=O)c(C(=O)O)cn3C2CC2)CC12CC2 [Compound 33b] ; returns value.
Output line: ≤ 0.05 µg/mL

Input line: Param readout= MIC; system= S. aureus, 209P; entry= NC1CN(c2nc3c(cc2F)c(=O)c(C(=O)O)cn3C2CC2)CC12CC2 (single isomer, unassigned; (-)) [Compound 35b] ; returns value.
Output line: ≤ 0.05 µg/mL

Input line: Param readout= MIC; system= S. aureus, 209P; entry= O=C(O)c1cn(C2CC2)c2c(Cl)c(N3CC(O)C4(CC4)C3)c(F)cc2c1=O (centres unmarked) ; returns value.
Output line: ≤ 0.05 µg/mL

Input line: Param readout= MIC; system= S. aureus, 209P; entry= NC1CN(c2cc3c(cc2F)c(=O)c(C(=O)O)cn3C2CC2)CC12CC2 (racemic) ; returns value.
Output line: ≤ 0.05 µg/mL

Input line: Param readout= MIC; system= S. aureus, 209P; entry= NC1CN(c2cc3c(cc2F)c(=O)c(C(=O)O)cn3-c2ccc(F)cc2F)CC12CC2 (centres unmarked) ; returns value.
Output line: 0.1 µg/mL

Input line: Param readout= MIC; system= S. aureus, 209P; entry= N[C@@H]1CN(c2nc3c(cc2F)c(=O)c(C(=O)O)cn3-c2ccc(F)cc2F)CC12CC2 [Compound 111b] ; returns value.
Output line: ≤ 0.05 µg/mL

Input line: Param readout= MIC; system= S. aureus, 209P; entry= NC1CN(c2c(F)cc3c(=O)c(C(=O)O)cn(C4CC4)c3c2F)CC12CCCC2 (centres unmarked) ; returns value.
Output line: ≤ 0.05 µg/mL

Input line: Param readout= MIC; system= S. aureus, 209P; entry= NC1CN(c2c(F)cc3c(=O)c(C(=O)O)cn(C4CC4)c3c2Cl)CC12CC2 (single isomer, unassigned) [Compound 32a] ; returns value.
Output line: 0.1 µg/mL

Input line: Param readout= MIC; system= S. aureus, 209P; entry= CC(C)(C)n1cc(C(=O)O)c(=O)c2cc(F)c(N3CC(N)C4(CC4)C3)nc21 (centres unmarked) [Compound 41b] ; returns value.
Output line: ≤ 0.05 µg/mL

Input line: Param readout= MIC; system= S. aureus, 209P; entry= NC1CN(c2nc3c(cc2F)c(=O)c(C(=O)O)cn3C2CC2)CC12CC2 (centres unmarked) [Compound 35] ; returns value.
Output line: 0.1 µg/mL
